Parameter: Ratio IC50. Scope: all listed entries.
# Species on record: Homo sapiens
# Test: Selectivity index, ratio of IC50 for human recombinant MAO-A to IC50 for human recombinant MAO-B

Compound structure: Cn1c(=O)c2c(nc(CCSc3cccc(Br)c3)n2C)n(C)c1=O
Ratio IC50: 6
//
Compound structure: Cn1c(=O)c2c(nc(CSc3ccc(Cl)cc3)n2C)n(C)c1=O
Ratio IC50: 5
//
Compound structure: Cn1c(=O)c2c(nc(CSc3cccc(F)c3)n2C)n(C)c1=O
Ratio IC50: 2
//
Compound structure: Cn1c(=O)c2c(nc(COc3ccc(Cl)cc3)n2C)n(C)c1=O
Ratio IC50: 82
//
Compound structure: COc1cccc(SCc2nc3c(c(=O)n(C)c(=O)n3C)n2C)c1
Ratio IC50: 5
//
Compound structure: Cn1c(=O)c2c(nc(CSc3ccccc3)n2C)n(C)c1=O
Ratio IC50: 3
//
Compound structure: Cn1c(=O)c2c(nc(COc3cccc(F)c3)n2C)n(C)c1=O
Ratio IC50: 8
//
Compound structure: Cn1c(=O)c2c(nc(COc3ccc(Br)cc3)n2C)n(C)c1=O
Ratio IC50: 57
//
Compound structure: Cn1c(=O)c2c(nc(COc3ccccc3)n2C)n(C)c1=O
Ratio IC50: 4

---

# Species on record: Homo sapiens
# Test: Selectivity index, ratio of IC50 for human recombinant MAO-A to IC50 for human recombinant MAO-B

Compound structure: Cn1c(=O)c2c(nc(CSc3cccc(Cl)c3)n2C)n(C)c1=O
Ratio IC50: 3
--
Compound structure: Cn1c(=O)c2c(nc(CSc3ccc(Br)cc3)n2C)n(C)c1=O
Ratio IC50: 5
--
Compound structure: Cn1c(=O)c2c(nc(CCSc3ccc(Br)cc3)n2C)n(C)c1=O
Ratio IC50: 0.9
--
Compound structure: CCOc1cccc(SCc2nc3c(c(=O)n(C)c(=O)n3C)n2C)c1
Ratio IC50: 2
--
Compound structure: Cn1c(=O)c2c(nc(COc3cccc(C(F)(F)F)c3)n2C)n(C)c1=O
Ratio IC50: 7
--
Compound structure: Cn1c(=O)c2c(nc(COc3ccc(F)cc3)n2C)n(C)c1=O
Ratio IC50: 10

---

# Target of assay: Amine oxidase [flavin-containing] A (Homo sapiens)
# Sequence (P21397 whole entry): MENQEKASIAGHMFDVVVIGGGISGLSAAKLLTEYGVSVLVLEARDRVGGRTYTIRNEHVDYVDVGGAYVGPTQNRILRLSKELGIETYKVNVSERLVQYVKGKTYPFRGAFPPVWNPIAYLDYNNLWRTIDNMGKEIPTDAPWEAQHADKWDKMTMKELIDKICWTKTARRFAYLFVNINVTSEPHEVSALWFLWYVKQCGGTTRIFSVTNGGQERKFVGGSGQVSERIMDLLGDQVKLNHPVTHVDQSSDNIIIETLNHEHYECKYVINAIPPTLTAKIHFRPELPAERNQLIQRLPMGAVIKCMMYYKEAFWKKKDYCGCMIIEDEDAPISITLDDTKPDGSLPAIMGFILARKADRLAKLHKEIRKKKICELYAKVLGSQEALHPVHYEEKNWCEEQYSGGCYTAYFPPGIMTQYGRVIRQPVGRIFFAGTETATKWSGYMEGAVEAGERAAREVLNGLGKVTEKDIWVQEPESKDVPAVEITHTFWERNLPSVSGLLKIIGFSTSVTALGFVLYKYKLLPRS
# Test: Inhibition of human recombinant MAO-A expressed in baculovirus infected insect cells using kynuramine as substrate after 20 mins by fluorescence spectrophotometry
Parameter: IC50. Scope: all listed entries.

Compound structure: Cn1c(=O)c2c(nc(CSc3ccc(Cl)cc3)n2C)n(C)c1=O
IC50 [µM]: 31.6
//
Compound structure: Cn1c(=O)c2c(nc(CSc3cccc(F)c3)n2C)n(C)c1=O
IC50 [µM]: 50.1
//
Compound structure: Cn1c(=O)c2c(nc(CSc3cccc(Br)c3)n2C)n(C)c1=O
IC50 [µM]: 23.8
//
Compound structure: COc1cccc(SCc2nc3c(c(=O)n(C)c(=O)n3C)n2C)c1
IC50 [µM]: 41.3
//
Compound structure: Cn1c(=O)c2c(nc(CSc3ccc(Br)cc3)n2C)n(C)c1=O
IC50 [µM]: 20.8
